The reported numbers originate from ChEMBL document CHEMBL5634085.

Tested on: Leishmania amazonensis
test-name: Antileishmanial activity against Leishmania amazonensis IFLA/BR/1967/PH8 amastigotes infected in mouse peritoneal macrophage assessed as inhibition of parasite growth pre-infected in cells for 4 hrs followed by compound addition and measured after 24 hrs by Giemsa staining based analysis
Format: functional, organism-based
test-context: IFLA/BR/1967/PH8, Peritoneal macrophage
Under this convention, condition met denotes IC50 strictly below 20 µM and condition not met denotes IC50 at or above 20 µM.

Query: Is IC50 of COc1cc(OC)c(Cl)c(-c2cc(Cn3ccnc3[N+](=O)[O-])on2)c1 strictly below 20 µM?
Reply: condition met

Query: Problem: For the compound COc1ccc(-c2cc(Cn3ccnc3[N+](=O)[O-])on2)cc1[N+](=O)[O-] , is IC50 under 20 µM?
Reply: condition met

Query: Dear reviewer, please state whether COc1ccc(-c2cc(-c3cc(OC)c(OC)c(OC)c3)no2)cc1OC has IC50 strictly beneath 20 µM.
Reply: condition met

Query: Quick check: does COc1ccc(-c2cc(Cn3ccnc3[N+](=O)[O-])on2)cc1O have IC50 under 20 µM?
Reply: condition met

Query: Below 20 µM on IC50? Entry O=[N+]([O-])c1nccn1Cc1cc(-c2ccc(F)cc2)no1
Reply: condition not met

Query: Just wondering, is IC50 of COc1cc(-c2cn(-c3cc(OC)c(OC)c(OC)c3)nn2)cc(OC)c1OC below 20 µM?
Reply: condition met

Query: hey, is IC50 for O=[N+]([O-])c1nccn1Cc1cc(-c2ccc(OC(F)(F)F)cc2)no1 lower than 20 µM or not?
Reply: condition not met

Query: Is it true that IC50 reported for COc1cc(-n2cc(-c3ccc4c(c3)OCO4)nn2)cc(OC)c1OC is less than 20 µM?
Reply: condition met

Query: Given the entry COc1ccc(-c2cc(-c3cc(OC)c(OC)c(OC)c3)on2)cc1OC , would its reported IC50 be below 20 µM?
Reply: condition met

Query: Please let me know if CN1CCN(c2ccc(-c3cc(Cn4ccnc4[N+](=O)[O-])on3)cc2)CC1 shows IC50 below 20 µM.
Reply: condition met

Query: Does the reported IC50 of the following compound sit strictly below 20 µM? O=[N+]([O-])c1nccn1Cc1cc(-c2ccc(N3CCCCCC3)cc2)no1
Reply: condition not met

Query: Hi there! Is IC50 for N#Cc1cccc(-c2cc(Cn3ccnc3[N+](=O)[O-])on2)c1 below 20 µM, do you know?
Reply: condition not met

Query: Please check: IC50 for COc1ccc(-c2cc(Cn3ccnc3[N+](=O)[O-])on2)cc1 , strictly under 20 µM or not?
Reply: condition met

Query: In the record for O=[N+]([O-])c1cccc(-c2cc(Cn3ccnc3[N+](=O)[O-])on2)c1 , is IC50 less than 20 µM?
Reply: condition not met

Query: For COc1ccc(-c2cn(-c3cc(OC)c(OC)c(OC)c3)nn2)cc1OC , is the recorded IC50 below the cut-off of 20 µM?
Reply: condition met

Query: In the record for O=[N+]([O-])c1nccn1Cc1cc(-c2ccccc2)no1 , is IC50 less than 20 µM?
Reply: condition not met

Query: Does this compound meet the criterion IC50 < 20 µM? COc1cccc(-c2cc(Cn3ccnc3[N+](=O)[O-])on2)c1
Reply: condition met

Query: For O=[N+]([O-])c1nccn1Cc1cc(-c2ccc(N3CCCCC3)cc2)no1 , is the recorded IC50 below the cut-off of 20 µM?
Reply: condition not met

Query: Below 20 µM on IC50? Entry N=C(N)c1ccc(OCCCCCOc2ccc(C(=N)N)cc2)cc1
Reply: condition met

Query: Decide: IC50 of COc1cc(-c2cc(-c3ccc4c(c3)OCO4)no2)cc(OC)c1OC strictly below 20 µM?
Reply: condition met
